test system: EGFR Del19/T790M/C797S (H1975-clone #28); experiment: EGFR degradation HTRF assay, H1975-clone #28 DTC cells; type: cell-based; settings: H1975 # 28 DTC cells; maximum percentage of inhibition (degradation)
measured_metric: Dmax (%) H1975 # 28 DTC
Give the value, in units of %, as a plain number.

compound | result_unit | data_value
CCc1cc(Nc2ncc(Br)c(Nc3ccc4c(c3P(C)(C)=O)OCCO4)n2)c(OC)cc1N1CCC(N2CCN(C(=O)[C@@H]3CCN(c4cc(F)c([C@H]5CCC(=O)NC5=O)c(F)c4)C3)CC2)CC1 | % | 88.73
CCOc1cc(N2CCC(N3CCN(CC4CN(c5cc(F)cc6c5oc(=O)n6C5CCC(=O)NC5=O)C4)CC3)CC2)c(CC)cc1Nc1ncc(Br)c(Nc2ccc3nc(CC)ccc3c2P(C)(C)=O)n1 (stereo not shown) | % | 95.6
CCc1ccc2c(P(C)(C)=O)c(Nc3nc(Nc4cc(C5CC5)c(N5CCC(N6CCN(CCc7cc(F)c([C@H]8CCC(=O)NC8=O)c(F)c7)CC6)CC5)cc4OC)ncc3Br)ccc2n1 | % | 87.71

Next compound, Dmax (%) H1975 # 28 DTC to be filled in.
Supply reported Dmax (%) H1975 # 28 DTC belonging to this compound: CCOc1cc(N2CCC(N3CCN(CCc4ccc5c(c4)oc(=O)n5C4CCC(=O)NC4=O)CC3)CC2)c(CC)cc1Nc1ncc(Br)c(Nc2ccc3nc(C)c(F)cc3c2P(C)(C)=O)n1 (stereo not shown)
79.33

###

target: EGFR L858R/C797S (BaF3 LC cells) (Homo sapiens, UniProt P00533, C797S/L858R); construct: expressed in transfected cells; host or cells: BaF3; assay: EGFR degradation HTRF assay, BaF3 LC cells; type: cell-based; conditions: BaF3 LC, 16h treatment, maximum percentage of degradation; read-out: BaF3 LC Dmax (%)
Sequence (P00533 25-1210 C797S/L858R): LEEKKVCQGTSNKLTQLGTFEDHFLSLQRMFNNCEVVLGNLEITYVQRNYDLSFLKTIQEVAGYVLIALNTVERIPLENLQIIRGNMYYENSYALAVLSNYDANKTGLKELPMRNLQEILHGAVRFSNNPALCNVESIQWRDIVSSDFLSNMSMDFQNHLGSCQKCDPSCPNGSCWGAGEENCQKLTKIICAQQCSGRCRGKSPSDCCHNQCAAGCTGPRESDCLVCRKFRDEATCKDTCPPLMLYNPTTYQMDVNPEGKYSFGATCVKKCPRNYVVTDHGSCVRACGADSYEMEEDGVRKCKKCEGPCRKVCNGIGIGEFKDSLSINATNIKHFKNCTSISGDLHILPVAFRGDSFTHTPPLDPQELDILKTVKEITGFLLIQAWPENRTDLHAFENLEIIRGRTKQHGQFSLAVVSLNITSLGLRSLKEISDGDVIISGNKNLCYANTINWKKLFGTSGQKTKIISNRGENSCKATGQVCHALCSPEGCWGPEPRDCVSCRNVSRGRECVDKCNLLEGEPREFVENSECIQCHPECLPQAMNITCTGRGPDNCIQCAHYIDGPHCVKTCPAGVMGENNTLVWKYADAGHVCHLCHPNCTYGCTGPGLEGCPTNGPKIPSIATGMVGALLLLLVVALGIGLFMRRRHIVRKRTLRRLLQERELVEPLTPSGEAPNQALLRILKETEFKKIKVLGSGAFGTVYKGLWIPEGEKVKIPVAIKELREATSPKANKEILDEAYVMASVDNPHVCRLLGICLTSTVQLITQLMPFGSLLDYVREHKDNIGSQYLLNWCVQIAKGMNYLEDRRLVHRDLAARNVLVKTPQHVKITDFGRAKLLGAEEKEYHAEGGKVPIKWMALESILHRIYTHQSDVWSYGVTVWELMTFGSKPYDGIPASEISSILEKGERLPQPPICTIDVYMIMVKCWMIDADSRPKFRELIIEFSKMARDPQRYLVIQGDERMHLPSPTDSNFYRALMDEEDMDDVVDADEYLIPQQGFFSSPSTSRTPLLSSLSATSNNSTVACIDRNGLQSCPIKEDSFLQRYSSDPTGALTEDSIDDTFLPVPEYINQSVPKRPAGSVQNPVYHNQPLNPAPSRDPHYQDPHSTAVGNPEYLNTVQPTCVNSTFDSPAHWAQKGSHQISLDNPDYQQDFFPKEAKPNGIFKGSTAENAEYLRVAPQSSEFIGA
Documented Dmax across a set of compounds

See these solved cases before continuing.
compound | Dmax
CCOc1cc(N2CCC(N3CCN(CCc4ccc5c(c4)oc(=O)n5C4CCC(=O)NC4=O)CC3)CC2)c(CC)cc1Nc1ncc(Br)c(Nc2ccc3nc(CC)ccc3c2P(C)(C)=O)n1 (stereo not shown) [Example 463] | 85.5%
CCOc1cc(N2CCC(N3CCN(CCc4cc5oc(=O)n(C6CCC(=O)NC6=O)c5cc4C)CC3)CC2)c(CC)cc1Nc1ncc(Br)c(Nc2ccc3nc(CC)ccc3c2P(C)(C)=O)n1 (stereo not shown) [Example 465] | 92.7%

Next compound, Dmax to be filled in.
Supply reported Dmax belonging to this compound: CCc1ccc2c(P(C)(C)=O)c(Nc3nc(Nc4cc(CC)c(N5CCC(N6CCN(CCc7cccc8c7oc(=O)n8C7CCC(=O)NC7=O)CC6)CC5)cc4OC)ncc3Br)ccc2n1 (stereo not shown) [Example 509]
80.4%

###

Target: EGFR L858R/T790M (H1975-clone #36, homozygous) (Homo sapiens, UniProt P00533, L858R/T790M)
Construct: designed to specifically target WT EGFR but preserve the L858R/T790M copy; host or cells: H1975-clone #36
Sequence (P00533 25-1210 T790M/L858R): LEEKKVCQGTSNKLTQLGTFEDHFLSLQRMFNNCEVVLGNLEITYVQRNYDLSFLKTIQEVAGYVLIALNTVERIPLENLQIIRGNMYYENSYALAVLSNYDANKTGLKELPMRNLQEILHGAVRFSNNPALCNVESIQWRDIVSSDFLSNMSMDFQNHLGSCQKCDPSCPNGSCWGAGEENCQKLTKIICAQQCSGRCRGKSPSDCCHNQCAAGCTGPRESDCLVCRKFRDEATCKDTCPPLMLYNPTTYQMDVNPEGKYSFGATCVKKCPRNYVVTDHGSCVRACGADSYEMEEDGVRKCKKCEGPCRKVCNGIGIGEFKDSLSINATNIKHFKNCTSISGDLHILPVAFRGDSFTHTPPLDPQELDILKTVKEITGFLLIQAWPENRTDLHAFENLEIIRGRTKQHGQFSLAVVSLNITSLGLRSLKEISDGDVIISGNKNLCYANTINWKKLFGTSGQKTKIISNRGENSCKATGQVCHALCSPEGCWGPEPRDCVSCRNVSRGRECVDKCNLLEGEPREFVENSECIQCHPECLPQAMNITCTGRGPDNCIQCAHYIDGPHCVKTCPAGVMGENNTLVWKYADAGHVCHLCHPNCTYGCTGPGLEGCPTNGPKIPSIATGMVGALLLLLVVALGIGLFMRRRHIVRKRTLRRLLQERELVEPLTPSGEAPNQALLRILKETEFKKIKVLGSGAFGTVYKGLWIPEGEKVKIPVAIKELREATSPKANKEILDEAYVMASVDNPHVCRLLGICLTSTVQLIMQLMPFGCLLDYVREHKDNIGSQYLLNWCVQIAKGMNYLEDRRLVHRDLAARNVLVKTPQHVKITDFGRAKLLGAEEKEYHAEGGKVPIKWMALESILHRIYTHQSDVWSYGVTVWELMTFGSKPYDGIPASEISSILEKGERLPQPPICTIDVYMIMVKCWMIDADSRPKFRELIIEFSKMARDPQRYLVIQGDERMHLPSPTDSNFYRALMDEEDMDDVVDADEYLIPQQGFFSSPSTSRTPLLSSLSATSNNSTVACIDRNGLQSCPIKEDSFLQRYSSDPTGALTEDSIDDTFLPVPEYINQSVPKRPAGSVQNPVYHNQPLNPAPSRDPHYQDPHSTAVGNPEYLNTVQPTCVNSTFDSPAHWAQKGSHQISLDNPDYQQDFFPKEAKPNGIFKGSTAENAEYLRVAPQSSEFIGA
Test: EGFR degradation HTRF assay, H1975-clone #36 cells
Format: cell-based
Conditions: NCI-H1975; H1975 #36, 16h treatment, maximum percentage of degradation
Protocol: H1975-clone #36(L858R/T790M). H1975 cell heterozygously (from ATCC) contains alleles of WT and L858R/T790M EGFR. […] The inhibition (degradation) percentage of the compound was calculated by the following equation: Inhibition percentage of Compound=100-100×(Signal-low control)/(High control-low control), wherein signal=each test compound group High control=Cell group with added DMSO and without compound, indicating microplate readings without EGFR degradation; […]
Where a name gives a salt, the structure may show the parent alone.
Binned Dmax; ranges: lower bin = under 60%, middle bin = from 60% up to 80%, upper bin = 80% and over

compound | system_tested | group_label
CCc1cc(Nc2ncc(Br)c(Nc3ccc4nccnc4c3P(C)(C)=O)n2)c(OC)cc1N1CCC(N2CCN(CCOc3ccc(C4CCC(=O)NC4=O)cc3)CC2)CC1 (stereo not drawn) [Example 17, formate] | EGFR L858R/T790M (H1975-clone #36, homozygous) (Homo sapiens, UniProt P00533, L858R/T790M) | lower bin
CCc1cc(Nc2ncc(Br)c(Nc3ccc4nccnc4c3P(C)(C)=O)n2)c(OC)cc1N1CCC(N2CCN(CCC3CCN(c4ccc(C5CCC(=O)NC5=O)c(C#N)c4)CC3)CC2)CC1 (stereo not drawn) [Example 34] | EGFR L858R/T790M (H1975-clone #36, homozygous) (Homo sapiens, UniProt P00533, L858R/T790M) | middle bin
COc1cc(N2CCN(C3CCN(CCc4ccc(C5CCC(=O)NC5=O)cc4)CC3)CC2)ccc1Nc1ncc(Cl)c(Nc2ccccc2N(C)S(C)(=O)=O)n1 (stereo not drawn) [Example 120, hydrochloride] | EGFR L858R/T790M (H1975-clone #36, homozygous) (Homo sapiens, UniProt P00533, L858R/T790M) | upper bin
CCc1cc(Nc2ncc(Br)c(Nc3ccc4nccnc4c3P(C)(C)=O)n2)c(OC)cc1N1CCC(N2CCN(CCC3CCN(c4ccc(N5CCC(=O)NC5=O)cc4)CC3)CC2)CC1 [Example 55] | EGFR L858R/T790M (H1975-clone #36, homozygous) (Homo sapiens, UniProt P00533, L858R/T790M) | lower bin
CCc1cc(Nc2ncc(Br)c(Nc3ccc4nccnc4c3P(C)(C)=O)n2)c(OC)cc1N1CCC(N2CCN(CCc3ccc(C4CCC(=O)NC4=O)c(F)c3)CC2)CC1 (stereo not drawn) [Example 5] | EGFR L858R/T790M (H1975-clone #36, homozygous) (Homo sapiens, UniProt P00533, L858R/T790M) | upper bin

Would you mind sorting CCc1cc(Nc2ncc(Br)c(Nc3ccc4nccnc4c3P(C)(C)=O)n2)c(OC)cc1N1CCC(N2CCN(CCCN3CCN(c4ccc5c(c4)C(=O)N(C4CCC(=O)NC4=O)C5=O)CC3)CC2)CC1 (stereo not drawn) [Example 60] into the appropriate category?
middle bin

Would you mind sorting CCc1cc(Nc2ncc(Br)c(Nc3ccc4c(=O)n(C)ncc4c3P(C)(C)=O)n2)c(OC)cc1N1CCC(N2CCN(CCC3CCN(c4cc(F)c(C5CCC(=O)NC5=O)c(F)c4)CC3)CC2)CC1 (stereo not drawn) [Example 270] into the appropriate category?
upper bin

Would you mind sorting COc1cc(N2CCC(N3CCN(CCCOc4ccc(OC5CCC(=O)NC5=O)cc4)CC3)CC2)ccc1Nc1ncc(Cl)c(Nc2ccccc2N(C)S(C)(=O)=O)n1 (stereo not drawn) [Example 127] into the appropriate category?
middle bin

Would you mind sorting CCc1cc(Nc2ncc(Br)c(Nc3ccc4nccnc4c3P(C)(C)=O)n2)c(OC)cc1N1CCC(N2CCN(C(=O)C3CCN(c4ccc5c(c4)C(=O)N(C4CCC(=O)NC4=O)C5=O)CC3)CC2)CC1 (stereo not drawn) [Example 67] into the appropriate category?
middle bin

Would you mind sorting COc1cc(N2CCC(N(C)CC3CCN(c4ccc(N5CCC(=O)NC5=O)c(C)c4)CC3)CC2)c(C)cc1Nc1ncc(Br)c(Nc2ccc3nccnc3c2P(C)(C)=O)n1 [Example 83] into the appropriate category?
lower bin
